Provide the reported composite z-score of each item.
# TARGET_SYSTEM: Neurogenic locus notch homolog protein 3 (Homo sapiens) (UniProt Q9UM47)
# Sequence (Q9UM47 whole entry, looked up): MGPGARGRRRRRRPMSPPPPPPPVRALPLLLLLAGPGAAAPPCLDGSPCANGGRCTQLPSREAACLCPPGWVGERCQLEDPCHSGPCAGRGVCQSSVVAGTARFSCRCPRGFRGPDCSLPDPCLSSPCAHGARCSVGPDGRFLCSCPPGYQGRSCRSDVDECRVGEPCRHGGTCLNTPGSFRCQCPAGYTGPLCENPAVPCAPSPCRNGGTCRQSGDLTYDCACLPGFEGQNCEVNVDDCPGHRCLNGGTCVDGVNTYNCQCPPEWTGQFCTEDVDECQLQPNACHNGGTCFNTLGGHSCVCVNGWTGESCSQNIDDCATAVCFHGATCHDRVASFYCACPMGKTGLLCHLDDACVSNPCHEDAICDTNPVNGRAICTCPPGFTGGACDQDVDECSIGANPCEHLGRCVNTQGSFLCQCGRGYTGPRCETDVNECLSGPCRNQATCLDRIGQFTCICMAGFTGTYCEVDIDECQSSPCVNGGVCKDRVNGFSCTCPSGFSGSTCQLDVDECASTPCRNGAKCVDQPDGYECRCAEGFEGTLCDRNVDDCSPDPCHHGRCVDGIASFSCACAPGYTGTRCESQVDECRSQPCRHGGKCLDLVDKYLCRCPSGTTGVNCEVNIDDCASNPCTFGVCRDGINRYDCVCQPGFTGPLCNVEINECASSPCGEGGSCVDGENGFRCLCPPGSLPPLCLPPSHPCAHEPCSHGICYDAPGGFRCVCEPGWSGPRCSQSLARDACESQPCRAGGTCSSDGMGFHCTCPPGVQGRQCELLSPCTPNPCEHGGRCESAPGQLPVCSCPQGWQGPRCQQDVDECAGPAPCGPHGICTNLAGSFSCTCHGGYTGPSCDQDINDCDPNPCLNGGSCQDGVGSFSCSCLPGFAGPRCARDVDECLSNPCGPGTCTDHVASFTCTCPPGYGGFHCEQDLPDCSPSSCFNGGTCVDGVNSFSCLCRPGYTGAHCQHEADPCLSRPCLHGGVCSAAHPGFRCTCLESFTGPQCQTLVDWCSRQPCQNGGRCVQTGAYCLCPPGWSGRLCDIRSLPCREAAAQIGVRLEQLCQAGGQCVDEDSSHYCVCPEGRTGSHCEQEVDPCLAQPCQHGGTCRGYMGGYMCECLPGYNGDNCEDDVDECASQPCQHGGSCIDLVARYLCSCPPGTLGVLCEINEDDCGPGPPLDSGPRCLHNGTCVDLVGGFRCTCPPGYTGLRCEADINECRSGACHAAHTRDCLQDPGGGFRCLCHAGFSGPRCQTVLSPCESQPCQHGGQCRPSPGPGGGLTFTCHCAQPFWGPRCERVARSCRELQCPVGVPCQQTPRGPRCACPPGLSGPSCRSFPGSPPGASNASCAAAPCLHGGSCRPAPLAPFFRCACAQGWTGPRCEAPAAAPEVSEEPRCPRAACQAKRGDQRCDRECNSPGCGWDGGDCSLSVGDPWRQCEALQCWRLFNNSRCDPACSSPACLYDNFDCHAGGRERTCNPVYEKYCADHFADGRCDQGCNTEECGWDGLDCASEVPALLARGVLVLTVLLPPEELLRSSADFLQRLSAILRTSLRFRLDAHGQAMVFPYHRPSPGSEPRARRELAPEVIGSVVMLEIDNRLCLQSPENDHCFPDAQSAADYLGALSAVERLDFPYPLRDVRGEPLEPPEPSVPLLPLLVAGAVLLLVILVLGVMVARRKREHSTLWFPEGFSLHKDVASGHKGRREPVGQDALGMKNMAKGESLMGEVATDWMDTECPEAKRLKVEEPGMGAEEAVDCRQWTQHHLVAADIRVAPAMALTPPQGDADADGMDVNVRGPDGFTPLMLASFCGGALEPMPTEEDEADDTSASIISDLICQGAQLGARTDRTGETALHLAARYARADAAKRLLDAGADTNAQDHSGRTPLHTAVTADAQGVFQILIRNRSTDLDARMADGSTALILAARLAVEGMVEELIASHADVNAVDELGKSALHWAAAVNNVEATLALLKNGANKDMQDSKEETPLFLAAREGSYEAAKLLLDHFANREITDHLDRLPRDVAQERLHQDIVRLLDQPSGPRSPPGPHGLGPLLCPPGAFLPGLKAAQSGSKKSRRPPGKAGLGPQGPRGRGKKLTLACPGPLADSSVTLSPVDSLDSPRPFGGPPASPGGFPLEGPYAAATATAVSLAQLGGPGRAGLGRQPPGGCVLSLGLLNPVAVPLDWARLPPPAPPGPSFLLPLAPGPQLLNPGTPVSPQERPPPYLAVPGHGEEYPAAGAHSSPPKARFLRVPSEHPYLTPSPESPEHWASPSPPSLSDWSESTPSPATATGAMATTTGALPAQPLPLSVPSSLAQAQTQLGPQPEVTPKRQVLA
# MEASUREMENT_DESCRIPTION: NOTCH3 binders on small-molecule microarray, primary screen, biochemical, 635/667 nm fluorescence (AID 1096)
# CONDITIONS_USED: NOTCH3 binding, 635 nm fluorescence, higher = more signal

Need composite z-score of CC(C)(C)OC(=O)CC[C@]1(C(=O)NCCN2CCOCC2)N=C(c2ccc(OCCCO)cc2)O[C@H]1c1ccccc1 , thanks.
-0.532

Fill in the blank: the reported composite z-score of O=C1NC(=O)C2C1C=CC(C(O)c1c(F)cccc1Cl)N2Nc1ccccn1 (stereo not drawn) is ____.
0.01

Given CCCNC(=O)[C@@]1(c2ccc([N+](=O)[O-])cc2)CC(=O)N(C2CCCCC2)[C@@H]1c1ccc(CO)cc1I , state its recorded composite z-score.
0.976

composite z-score for Cc1c(NC(=O)/C(C#N)=C/C=C/c2ccccc2[N+](=O)[O-])c(=O)n(-c2ccccc2)n1C ?
0.945

What composite z-score value was documented for this compound, CCOC(=O)C[C@H]1[C@H](OC(=O)c2ccc(-c3ccccc3)cc2)[C@@H](NC(=O)c2ccc3ccccc3n2)c2cc(OCCCO)ccc2N1C(=O)c1ccccc1 ?
1.05

Query: composite z-score; subject: COc1ccccc1CN1C(=O)c2ccccc2[C@@H](C(=O)NC(C)C)[C@@H]1c1ccc(CO)cc1
1.09

Entry C[n+]1ccc(CCCO)cc1 has what composite z-score?
-0.13

Can you share its composite z-score? I mean this compound: C=C[C@@H](C)[C@H](OC(=O)Nc1ccc(SC)cc1)c1ccc(OCCO)cc1
0.405

----------
# MEASUREMENT_DESCRIPTION: HepG2 cell viability effects, profiling panel, calcein-AM fluorescence, 48 h, basal (AID 1164); also: test concentration not given here
# CONDITIONS_USED: higher = more signal
Decision: z-score compared against -0.2; not below it gives Yes, below it gives No.

Hi, just wondering whether COCCCNC(=O)[C@]1(CCC(=O)OC(C)(C)C)N=C(c2ccc(OCCCO)cc2)O[C@@H]1c1ccccc1 shows z-score of -0.2 or higher.
No

Answer whether z-score of NC(=O)N1C(=O)C2C(C1=O)C1C=C(c3ccc(CO)cc3)C2C(C2CC2)N1Cc1sc2ccccc2c1Cl (configuration not stated) is greater than or equal to -0.2.
Yes

Determine whether measured z-score meets or exceeds -0.2 for COC(=O)C(CC#Cc1ccc2c(c1)[C@]1(C(=O)N2)[C@H](C(=O)O)[C@H]2C(=O)O[C@H](c3ccccc3)[C@H](c3ccccc3)N2[C@@H]1c1ccccc1OCCO)C(=O)OC
No

Would you say CCOC(=O)C[C@H]1[C@H](OC(=O)c2ccccc2-c2ccccc2)[C@@H](NC(=O)c2ccc3ccccc3n2)c2cc(OCCCO)ccc2N1C(=O)c1ccc2ccccc2n1 shows z-score at minimum -0.2?
Yes

For this molecule, is measured z-score -0.2 or higher? C=CC[C@@]1(C(=O)N2CCCCC2)N=C(c2ccc(OCCCO)cc2)O[C@@H]1c1ccccc1
Yes

Is the recorded value of z-score equal to or greater than -0.2 for this molecule? CC=CC(O)C1C=CC2C(=O)N(C)C(=O)C2N1N1CCCCC1 (configuration not stated)
No

Entry C[C@]1(C(=O)O)c2ccccc2C(=O)N(Cc2ccccc2)[C@H]1c1ccc(CO)cc1 : is its z-score no less than -0.2?
Yes

----------
# TARGET_SYSTEM: Carbonic anhydrase 2 (Homo sapiens) (UniProt P00918)
# MEASUREMENT_DESCRIPTION: CAII small-molecule binders, profiling panel, biochemical, small-molecule microarray, Alexa647-labelled CAII (AID 1122)
# CONDITIONS_USED: CAII-A647 binding fluorescence, higher = more signal
Use composite z-score to assign classes; range list: band A = under 0.4, band B = from 0.4 up to 0.6, band C = 0.6 and over

Category of COc1cc2c(cc1OC)CN(C(=O)[C@@H]1[C@H]3C(=O)O[C@H](c4ccccc4)[C@H](c4ccccc4)N3[C@H](c3ccccc3OCCO)[C@@]13C(=O)Nc1ccc(C#CC4(O)CCCCCC4)cc13)CC2 , please.
band B

Field: class (composite z-score) — entry: COc1cc(OC)c(C(O)C2C=CC3C(=O)N(c4ccccc4)C(=O)C3N2Nc2ccc(C#N)cc2)cc1Br (stereo not given)
band C

Record COc1cc2c(cc1OC)CN(C(=O)[C@H]1[C@@H]3C(=O)O[C@@H](c4ccccc4)[C@@H](c4ccccc4)N3[C@@H](c3ccc(OCCO)cc3)[C@]13C(=O)Nc1ccc(C#CC4(O)CCCCCC4)cc13)CC2 — which class?
band C

Place this molecule in its band: C[C@H]1ON(c2ccc(C(=O)OC(C)(C)C)cc2)[C@@H](c2ccc(O)cc2)[C@@H]1C(=O)N1C(=O)OC[C@@H]1c1ccccc1
band B

Could you place O=C1c2ccccc2[C@](Cc2ccccc2I)(C(=O)NCCN2CCOCC2)[C@H](c2ccc(CO)cc2)N1Cc1ccccc1 in its proper category? Many thanks.
band A

Sort into band: C=C(/C(=C/C[C@@H](OC(=O)c1ccncc1)c1ccc(OCCO)cc1)c1cc(C(=O)OC)ccc1OC)C(C)C
band A

Record O=C(CS)NCCCCCCNC(=O)[C@H]1C[C@H]2C(=O)N[C@@H](Cc3ccccc3)C(=O)N2[C@H]1c1cccc(OCCO)c1 — which class?
band C

Band of CC(C)(C)OC(=O)CC[C@]1(C(=O)NCCN2CCOCC2)N=C(c2ccc(OCCCO)cc2)O[C@H]1c1ccccc1 ?
band C

Band for the recorded composite z-score of COc1c(C)cc(-c2cc3c(c(Cc4ccccc4)n2)[Si](C(C)C)(C(C)C)OC3)cc1C ?
band A

// return the class label for C=CCC(OC(C)=O)[C@@H]1[C@@H](N(Cc2ccc(-c3ccccc3)cc2)C(=O)c2cccc3ccccc23)c2cc(OCCCO)ccc2N1C(=O)Cc1ccc2ccccc2c1 (stereo not given in full)
band A

Which category does the recorded composite z-score put [N-]=[N+]=NCc1ccccc1C[C@@]1(C(=O)N2CCCCC2)N=C(c2ccc(OCCCO)cc2)O[C@@H]1c1ccccc1N=[N+]=[N-] in?
band A

Entry CCOC(=O)C[C@H]1[C@H](OC(=O)c2ccc(-c3ccccc3)cc2)[C@@H](NC(=O)c2ccc3ccccc3n2)c2cc(OCCCO)ccc2N1C(=O)c1ccccc1 belongs to which category?
band A

Band of CO[C@H]1O[C@H](CO)[C@@H](OC(=O)Nc2ccc(Oc3ccccc3)cc2)[C@H](OC(=O)Nc2ccccc2-c2ccccc2)[C@@H]1OC(=O)Nc1ccccc1-c1ccccc1 ?
band B

For this molecule, which bin applies? CC(C)c1ccc(NN2C(C(O)c3ccco3)C=CC3C(=O)N(c4ccccc4)C(=O)C32)cc1 (stereo not given)
band C

----------
# MEASUREMENT_DESCRIPTION: P. aeruginosa biofilm formation inhibitors, primary screen, PAO1 strain, BacTiter-Glo luminescence, LB-PBS (AID 1144)
# CONDITIONS_USED: 12 h, higher = more signal
Each entry gets criterion not met if its z-score stays under -0.5, and criterion met if its z-score is -0.5 or above.

Entry COCCCNC(=O)[C@]1(Cc2ccccc2CN=[N+]=[N-])N=C(c2ccc(OCCCO)cc2)O[C@@H]1c1ccccc1 : is its z-score no less than -0.5?
criterion met

Can C=CCOC(=O)[C@@H]1[C@H]2C(=O)O[C@H](c3ccccc3)[C@H](c3ccccc3)N2[C@H](c2ccc(OCCOC(=O)[C@H]3C[C@H]4C(=O)N[C@@H](CCCC[N+](C)(C)C)C(=O)N4[C@H]3c3ccc(O)cc3)cc2)[C@@]12C(=O)Nc1ccc(I)cc12 be said to have z-score at or above -0.5?
criterion met

Could you verify whether the entry CO[C@H]1O[C@H](CO)[C@@H](OC(=O)Nc2ccc(Oc3ccccc3)cc2)[C@H](OC(=O)Nc2ccccc2-c2ccccc2)[C@@H]1OC(=O)Nc1ccccc1-c1ccccc1 shows z-score of no less than -0.5?
criterion not met

In plain terms: is recorded z-score at least -0.5 for [N-]=[N+]=Nc1ccccc1[C@H]1OC(c2ccc(OCCCO)cc2)=N[C@@]1(CCS(=O)(=O)c1ccccc1)C(=O)N1CCCCC1 ?
criterion not met

Is it the case that CCCc1cccc(=O)o1 has z-score reaching or exceeding -0.5?
criterion not met

In plain terms: is recorded z-score at least -0.5 for CCCCC(=C=CC[C@@H](O)c1ccc(OCCO)cc1)C[C@@H](O)COCc1ccccc1 ?
criterion not met

Could you please find out whether [N-]=[N+]=NCc1ccccc1C[C@@]1(C(N)=O)N=C(c2ccc(OCCCO)cc2)O[C@@H]1c1ccccc1CN=[N+]=[N-] has z-score that meets -0.5 or exceeds it?
criterion met

Kindly determine if z-score recorded for COc1ccc(C(O)C2C=CC3C(=O)N(Cc4ccccc4)C(=O)C3N2n2cnnc2)c2ccccc12 (stereo not drawn) is above or exactly -0.5.
criterion met

API: above_or_equal(metric=z-score, cutoff=-0.5) for item O=C1O[C@@H](c2ccccc2)[C@@H](c2ccccc2)N2[C@@H](c3ccccc3OCCO)[C@]3(C(=O)Nc4ccc(C#CC5=CCCCC5)cc43)[C@@H](C(=O)NC[C@H](O)c3ccccc3)[C@H]12
criterion not met

Could you tell me if the measured z-score of CO[C@H]1O[C@H](CO)[C@@H](OC(=O)Nc2ccc(C(F)(F)F)cc2)[C@H](OC(=O)Nc2ccc3c(c2)OCO3)[C@H]1OC(=O)Nc1ccc2c(c1)OCO2 reaches -0.5 or more?
criterion met

Entry COCCOC(=O)N1C(=O)[C@@]2(c3ccccc31)[C@H](C(=O)N1CCN(c3ncccn3)CC1)[C@H]1C(=O)O[C@H](c3ccccc3)[C@H](c3ccccc3)N1[C@@H]2c1ccc(OCCO)cc1 : is its z-score no less than -0.5?
criterion met

Has CCOc1cc(C(O)C2C=CC3C(=O)N(C4CCCCC4)C(=O)C3N2Nc2ccc(OC)cc2)ccc1O (stereo not drawn) a recorded z-score greater than or equal to -0.5?
criterion not met

Record COCCOC(=O)N1C(=O)[C@@]2(c3cc(C#Cc4ccc(OC)cc4)ccc31)[C@H](C(=O)NC[C@H](O)c1ccccc1)[C@H]1C(=O)O[C@H](c3ccccc3)[C@H](c3ccccc3)N1[C@@H]2c1ccc(O)cc1 ; criterion: z-score no lower than -0.5. Met?
criterion met
